System: UACC-62 melanoma
Test: NCI tumour cell line growth inhibition, 48 h
readout name: TGI (µM)
Answers are plain numbers, in µM.

Examples with their reported TGI follow.
c1ccc(-c2nc(Nc3ccc(-c4nc5ccccc5[nH]4)cc3)nc(N3CCOCC3)n2)cc1	3.48
C[C@]12CC[C@H]3[C@@H](CCC4=CC(=O)CC[C@@H]43)[C@@H]1CC[C@@H]2OC1(O)C(=O)c2ccccc2C1=O	33.6
O=[N+]([O-])c1cccc(-c2nc3sccn3c2-c2ccnc(NCCCNS(=O)(=O)c3ccc(F)cc3)n2)c1	4.21
O=C1/C(=C/c2cccc([N+](=O)[O-])c2)COc2ccccc21	3.19

Alright, here's another molecule for you.
Task item: Requested read-out: TGI. Entry: CCOP(=O)(CS(C)=O)O[C@@H]1C[C@H](C)CC[C@H]1C(C)C (stereo partly specified)
Reply: 7.08

The measurements presented in this section are drawn from PubChem BioAssay (NCI).
